These measurements were taken from patent US20060257938A1.

Here, each record is paired with measured DR/DR LNA data.
assay notes: Probe fluorescence ratio response to linolenic acid relative to ADIFAB2
Format: binding
measurement parameters: response relative to ADIFAB2
The answer should be a number; do not append a unit.

18I 31M 55M 72A (protein, listed as Rattus norvegicus, PEPTIDE (1)...(131) wild-type rat intestinal fatty acid binding protein) AFDGTWKVDRNENYEKFIEKMGINVVKRKLMAHDNLKLTITQEGNKFTVKESSNMRNIDVVFELGVDFAYSAADGTELTGTWTMEGNKLVGKFKRVDNGKELIAVREISGNELIQTYTYEGVEAKRIFKKE = 1.358

Q: Look up DR/DR LNA: 14L 18I 31L 73F 117A 72A (protein, listed as Rattus norvegicus, PEPTIDE (1)...(131) wild-type rat intestinal fatty acid binding protein) AFDGTWKVDRNENLEKFIEKMGINVVKRKLLAHDNLKLTITQEGNKFTVKESSNFRNIDVVFELGVDFAYSAFDGTELTGTWTMEGNKLVGKFKRVDNGKELIAVREISGNELIQTATYEGVEAKRIFKKE
A: 0.639

Q: Look up DR/DR LNA: 21D, 72A (protein, listed as Rattus norvegicus, PEPTIDE (1)...(131) wild-type rat intestinal fatty acid binding protein) AFDGTWKVDRNENYEKFMEKDGINVVKRKLGAHDNLKLTITQEGNKFTVKESSNFRNIDVVFELGVDFAYSAADGTELTGTWTMEGNKLVGKFKRVDNGKELIAVREISGNELIQTYTYEGVEAKRIFKKE
A: 1.478
